METHOD: Stability in pooled mouse liver microsomes
Type: in vitro ADME
PARTICULARS: microsomes, 37°C, upper limit 100 min, read-out: t ½ in liver microsomes
MEASURED_ATTRIBUTE: half-life at 1 μM (min)
Numbers only; they are read as min.

Ask: Item under review: Cc1ncc2n1-c1ccc(Cl)cc1C(c1ccccc1F)=NC2 [midazolam, reference compound] . Reported half-life at 1 μM?
Reply: 17

----------
METHOD: Pharmacokinetics in rats
Assay type: in vivo, rat
PARTICULARS: in vivo, po; 5 mg·kg^−1 p.o., rat
MEASURED_ATTRIBUTE: bioavailability (%)
Numbers only; they are read as %.

Ask: Item under review: C[C@H](CO)NC(=O)c1cccc(/C=C\CCCC(=O)N(C)C)c1 [VSN16R] . Reported bioavailability?
Reply: 40

meta.source: paper PMC5522996
